- Assay comment: soluble on expression in E. coli; label from the status in PepcDB or PDB records
Readout: soluble on expression in E. coli

Chain sequence | Reported result
VSFPSSPPALPAIVARFAVGRPVRAVWVNELGGVTFRVDSGMGAGCEFIKVARRGTADFANEARRLRWAAPYLAVPRVLGVGVDGDWAWLHTDALPGLSAVHPRWRASPQVAVPALGAGLRTLHDSLPVHSCPFDWSTASRLAKLAPARRAELGDSPPVDRLVVCHGDACSPNTILDDTGRCCGHVDFGNLGVADRWADLAVATLSLQWNFPDYPGQVRDDEFFAAYGVAPDPARIDYYRRLWQAEDDSSR | soluble
MGSDKIHHHHHHMSQSIPEPHWHQTPQEFLASWSTSRGNLRRFFEEHALPPIDARTQREAGEAAAELAASELFGIKLDEYTSGLDSVSGSFEAAGAQHVTTANPEIPQDIGAAAFFDIDNTLIQGSSLVVFAMGLAKKKYFKLNEILPVAWKQIKFRVTGNENAHDVAEGRQQALEFIKGRRVDELVALCEEIVDNNMSEKLWPGTKQLADQHIADGQQVWLVSATPVQLAQALAKRLGFTGALGTVAEVKDGVFTGRLVGDILHGPGKLHAVAALATIERLDLSRCTAYSDSINDVPMLSMVGTAVAINPDRPLAKVAKQHGWAVRDYRSLRKAIRTFGIPALVTAAFSFGGWKAWRR | not soluble
MGSDKIHHHHHHMDDTTPPETPAVDDLLQRIAGAYDTLPRQLKRIASYIDEHRSSVMMDRTSDIAQRCGVHPSAVVRFAQRFGFSGFSDLQAVFKDAYTGQNPTVQSYQQRIRSLIDGEAGPMTGGAVARQFIDASRAGLDELAAGLDDDQFDAAVTMLERAENIYVVGVRRSFPVASYIVYALQHTAKRVHLVSGLGGMYREQIRSVKKGDVVIAISFAPYGKETQYCLRAARHNHAQTLVVTDSRLSPLARDASAHLLVKEGSAFAFRSLTSTICLCQALFIALAYRLELNVEEVKDIGGYDD | not soluble
MGSDKIHHHHHHMNEIFVFHGQEVRTVTINNEPWFVGKDVADILGYSKSRNAIALHVDEDDALKQGITDNLGRMQETIIINESGLYSLILSSKLPQVKEFKRWVTSEVLPQIRQQGAYVPENLSDEAFIALFTGQKKLKEHQLALAQDVDYLKNEQPIHPSFAQALLKKRKARVVSCLGGMDSPAYADKVFAQSVFRQAEVDFKDHFNINRYDMLPKKFAEAALSYWMTWEPSTNTKMKILEMNAYEL | not soluble
MVGYAEPVLIERQSVVAAPAEQVWQRVVTPEGINDELRPWMTMSVPRGAKGMTVDTVPIGAPIGRAWLRLFGVLPFDYDRLSIAELEPGRRFREDSTMLSMRQWQHERTVTPEGDTKTIVRDRITFQTRAGLRFAAPLIAAGLRALFGHRHRRLQRHFAQGLEHHHHHH | soluble
MGSHHHHHHSQDPMMSRLKTAVYDYLNDVDITECTEMDLLCQLSNCCDFINETYAKNYDTLYDIMERDILSYNIVNIKNTLTFALRDASPSVKLATLTLLASVIKKLNKIQHTDAAMFSEVIDGIVAEEQQVIGFIQKKCKYNTT | soluble
MGSDKIHHHHHHMIKNNRVYGIIGVGAYMANFNADLSGYPKTTTNNDIFGSDKALKYPMKRMWLIEGDKVFYIKSMTIAKSKKDKEMEILQPKDLIERYEDLFGKEWDANLTVKDVAKDLFSTVDIMNFGATFTGSESESKTAKKKIGHNISITGAVQINQGFNLYEKTNVLVQDILSPFRNPNDKSEDKTATSIGTKIVTDEAHYVYSFSVNPANYADYLGLIDGFEGYTTEAYEKFKRAARVATTAFNTNSKSGCENELALFIELKEDSKLFLANLDRYVEVRKKEKQTLYDLSKLAEIIAPQQEEIQSIELFHNPISVEVNYGSLPCTVNSIF | not soluble
MADIQGEDLESLYGYAKQLFDGGEIAAARNVYQLLSTLDHWNFDYLLALGLCHQRLGAHNEAVVCFGRAGLIKVDDPRAAFYAGISYRLDGNAEYASKAFKAAINWCGEQIDYQAIKASAVDMLALQQEEVPLEHHHHHH | soluble
MVSEMLSEAGHSVSYLKGGMKAWSEHLEPVKVGDLKDGGEMYQFVRIGKGCLSYMVISNGEAAIIDATRMVNFFIDFAKGKGATITHVFDTHLHADHISGGRVIAEKTKATYWLPPKDAEEVEFDYQPLEEGNDIIIGNTTIKIQPIYSPGHTIGSTSFIVDDQYLLSGDILFIDSIGRPDLAGMAEDWVGDLRKTLYSRYKALSKDLIVLPAHFMIIDELNENGSVGKQLSTLFSENHGLNIADETEFRHLVTDHLPPQPNAYQEIRETNMGKISPDEEKQREMEIGPNRCAIRLEHHHHHH | not soluble
MGSDKIHHHHHHMSNKLTYIVASGDTYTSIVNKINQSTPLTVSQLADANPSIQANQLQIGQALDIPLSTDGLIPDDNPALLTPAAEFMGYWYPYSASCPKNATLSVALYGWGPQKVIEWGKQADVQSHLNGEKYLSFGGGSESGKFTEQALNEITTAITQGQIKGYDGIAYDVEVADANLGAQFANSFEAAKACGFKVLVTISHSAPYDVADKDQLMKSFFINPHIDILSPQLYSKGDESQNDYALTSGSSITWRDYASTKAAIVPSIVHASYYEAAKIYFKNQGVELSGYLQWK | not soluble
VAEKPYLKDPEVAAGYHRVAKRELPEPKIMEVPQRFAAYVRHEGYNRSIRNAWLILKAWASSENRDFSVQYGLHHSNPAWVELDKCRYVACMAIDKPLKVRGVVNQMTIPGGLHAVFRLTGVYGELLPQLSMVLEKWLPNSGFKQRSTPAYVHYHKNHFLSHDEAFELDFYLPISFF | not soluble
